Target: E. coli SSB-Cy5-dT15 complex (Escherichia coli)
Construct: purchased Promega
Sequence (P0AGE0 2-178, one chain of several): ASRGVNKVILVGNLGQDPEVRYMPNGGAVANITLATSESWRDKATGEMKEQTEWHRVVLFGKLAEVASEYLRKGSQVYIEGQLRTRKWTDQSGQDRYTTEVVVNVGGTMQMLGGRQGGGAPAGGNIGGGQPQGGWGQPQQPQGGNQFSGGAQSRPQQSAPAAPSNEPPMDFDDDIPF
Experiment: Escherichia coli SSB Cy5-dT15 binding assay (fluorescence polarization)
Conditions: read-out: SSB % Displaced @ 100 μM
Listed compounds paired with reported inhibition at 100 µM
# value in %; strip the unit string

| compound | inhibition at 100 µM / % |
| --- | --- |
| Cc1ccc2nc(-c3ccc(NC(=O)c4ccc(NC(=O)c5ccccc5)cc4)cc3)sc2c1S(=O)(=O)O.N [Compound 40] | 84 |
| Cc1ccc2nc(-c3ccc4nc(-c5ccc(NC(=O)c6ccc(NC(=O)OCC7c8ccccc8-c8ccccc87)cc6)cc5)sc4c3)sc2c1S(=O)(=O)O [Compound 16] | 53 |
| COC(=O)c1ccc(C(=O)Nc2ccc(-c3nc4ccc(-c5nc6ccc(C)c(S(=O)(=O)O)c6s5)cc4s3)cc2)cc1 [Compound 9] | 91 |
| Cc1ccc2nc(-c3ccc4nc(-c5ccc(NC(=O)c6cccc7ccccc67)cc5)sc4c3)sc2c1S(=O)(=O)O.N [Compound 49] | 94 |
| COc1ccc(S(=O)(=O)Nc2ccc(-c3nc4ccc(-c5nc6ccc(C)c(S(=O)(=O)O)c6s5)cc4s3)cc2)cc1 [Compound 29] | 98 |

Next, consider the following compound.
Lab note: need inhibition at 100 µM with E. coli SSB-Cy5-dT15 complex (Escherichia coli) for entry Cc1ccc2nc(-c3ccc4nc(-c5ccc(NC(=O)Nc6ccc(F)cc6)cc5)sc4c3)sc2c1S(=O)(=O)O.N [Compound 48] , please look it up.
100

---

Target: HCV NS3 helicase NS3h_1b(con1) (Hepatitis C virus genotype 1b, UniProt Q9WMX2)
Construct: truncated C-terminally His-tagged NS3 proteins lacking the N-terminal protease, called NS3h; His-tag (C); made in house
Sequence (Q9WMX2 1192-1657): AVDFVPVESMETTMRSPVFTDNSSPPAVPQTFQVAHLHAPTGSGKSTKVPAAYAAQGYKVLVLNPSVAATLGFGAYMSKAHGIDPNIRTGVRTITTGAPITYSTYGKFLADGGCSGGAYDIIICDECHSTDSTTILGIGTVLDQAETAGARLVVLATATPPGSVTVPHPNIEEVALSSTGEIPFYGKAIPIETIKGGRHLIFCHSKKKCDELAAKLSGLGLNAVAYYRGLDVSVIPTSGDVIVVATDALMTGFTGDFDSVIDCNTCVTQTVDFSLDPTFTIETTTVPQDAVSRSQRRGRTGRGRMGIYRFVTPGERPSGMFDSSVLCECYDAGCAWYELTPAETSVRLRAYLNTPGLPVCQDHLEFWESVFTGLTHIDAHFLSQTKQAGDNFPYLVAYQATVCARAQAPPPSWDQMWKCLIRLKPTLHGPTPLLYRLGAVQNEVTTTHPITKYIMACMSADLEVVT
Assay: MBHA screen of NCI mechanistic set library at 20 μM (percent inhibition, compound interference)
Assay type: biochemical
Settings: compounds at 20 μM, MBHA with DNA substrate; calculated from Equation 1
Listed molecules paired with reported Inh. (%) (Inhibition)
# value in %; strip the unit string

The examples below pair each entry with its known result.
| molecule | Inh. (%) (Inhibition) |
| --- | --- |
| O=C1c2ccccc2-c2c1c1ccccc1c(=O)n2Cc1ccccc1 [Compound 337612] | −16.5 |
| O=C(CC1(O)C(=O)Nc2c(Cl)ccc(Cl)c21)c1ccc(Cl)cc1Cl (stereo not drawn) [Compound 635436] | 15.6 |
| CCN1CCC(O)(/C=C/c2ccc(C)cc2)C(C(=O)/C=C/c2ccc(C)cc2)C1.Cl (stereo not drawn) [Compound 657298] | −17.3 |
| COc1ccc2nc3cc([N+](=O)[O-])ccc3c(NNc3ccccc3)c2c1 [Compound 689872] | −2.4 |

Name the reported Inh. (%) (Inhibition) value associated with the molecule COc1ccc(-c2cc(=O)c3c(OC)c(OC)c(OC)cc3o2)cc1 [Compound 53908]
26.0

Name the reported Inh. (%) (Inhibition) value associated with the molecule CC(C)c1cccc(O)c(=O)c1 [Compound 18804]
15.2

Name the reported Inh. (%) (Inhibition) value associated with the molecule [O-][n+]1ccccc1[S-].[O-][n+]1ccccc1[S-].[Zn+2] [Compound 68093]
19.5

Name the reported Inh. (%) (Inhibition) value associated with the molecule COc1cc2c(cc1Oc1ccc(OC)c3c1CC1c4c(cc(OC)c(OC)c4-3)CCN1C)CC1c3c(cc(OC)c(OC)c3-2)CCN1C (stereo not drawn) [Compound 274893]
16.2

Name the reported Inh. (%) (Inhibition) value associated with the molecule [O-][Cl+3]([O-])([O-])[O-].c1ccc(-c2csc3c4ccccc4c4ccccc4[n+]23)cc1 [Compound 98904]
41.2
